assay: CCTE_Shafer_MEA_acute_per_network_burst_spike_number_mean: CCTE's Neural Acute Assay for Average Number of Spikes in a Network Burst, Shafer Lab (AID 2284019)
Calls of active or inactive are those of the source. How the source made its calls: active means hit-call score of the fitted dose curve at least 0.9, where 1 is the maximum; inactive means score below 0.9.
Respond using exactly one of the listed classes: active, inactive

Solved cases below.
1. Cc1ccc(N)c(N)c1
inactive
2. ClC1=C(Cl)[C@]2(Cl)[C@H]3[C@H]([C@@H]4C=C[C@H]3C4)[C@@]1(Cl)C2(Cl)Cl
inactive
3. CC(C)(O)c1cnn2c(-c3ccc(F)c(-c4c(F)cccc4C#N)c3)cnc2n1
inactive
4. O=P(OCCCl)(OCCCl)OCCCl
inactive
5. O=C(N[C@H](c1ccccc1)[C@@H]1CN2CCC1CC2)c1c(Cl)ccc(C(F)(F)F)c1Cl
inactive

What classification did ClC1=C(Cl)C2(Cl)C3C(Cl)C=CC3C1(Cl)C2(Cl)Cl (stereo not given) end up with in this test? active

What classification did "CCN(CC)N=O" end up with in this test? inactive

What classification did CC(C)(C)C(O)(CCc1ccc(Cl)cc1)Cn1cncn1 (stereo not given) end up with in this test? active

What classification did "CCN(CC)CCO" end up with in this test? inactive

What classification did "CCCCCOC(=O)c1ccccc1C(=O)OCCCCC" end up with in this test? inactive

What classification did "Clc1ccc(C(c2ccc(Cl)cc2)C(Cl)(Cl)Cl)cc1" end up with in this test? inactive

What classification did "CCCCCCCCn1sccc1=O" end up with in this test? active

What classification did "Cc1cc(N=Nc2ccccc2C)ccc1N" end up with in this test? inactive

What classification did "Clc1ccc(C(c2ccc(Cl)cc2)C(Cl)Cl)cc1" end up with in this test? active

What classification did "O=Cc1ccco1" end up with in this test? inactive

What classification did "O=[N+]([O-])c1ccc(Oc2ccc(Cl)cc2Cl)cc1" end up with in this test? inactive

###

test: CEETOX_H295R_ESTRONE: CeeTox H295R High-throughput Steroidogenesis Assay for Estrone (AID 2283441); conditions: actives raise or lower the signal;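 further: estrone secreted into medium measured by LC-MS/MS after dansyl derivatization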;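 on AC50: human adrenal H295R cells prestimulated with forskolin for two days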
Active and inactive are the calls of the source. The calls were made as follows: active = hit-call score of the fitted dose curve at least 0.9, where 1 is the maximum; inactive = score below 0.9.
VALUE KIND: AC50

The following molecules have reported results that may help.
1. O=C(Nc1ccccc1)c1ccccc1I
inactive
2. CNC(=O)Oc1cccc2c1OC(C)(C)C2
494 nM (active)
3. CCCCCCCCCCCCCN1CC(C)OC(C)C1 (stereo not given)
inactive
4. CCCCCOC(=O)c1ccccc1C(=O)OCCCCC
inactive

// switching to the query molecule
Need AC50, item "Nc1ccc(N=Nc2ccccc2)cc1" inactive

###

read-out: Interferon-gamma inducible Protein 10 (IP10), CXCL10 (gene 3627); test: BSK_hDFCGF_IP10: BioMAP Diversity Plus: hDFCGF Assay for Interferon-gamma inducible Protein 10 (IP10) Biomarker Activity (AID 2283053); conditions: primary human foreskin fibroblasts; actives raise or lower the signal
Active and inactive are the calls of the source. How the source made its calls: active means hit-call score of the fitted dose curve at least 0.9, where 1 is the maximum; inactive means score below 0.9.
Respond using exactly one of the listed classes: yes (1) for active, no (0) for inactive

Solved cases below.
1) Nc1ccc(Cc2ccc(N)cc2)cc1
no (0)
2) [Cl-].[Cl-].[Hg+2]
yes (1)
3) Clc1ccccc1Cl
no (0)
4) O=Cc1ccco1
no (0)
5) COc1cc(C=O)cc2c1[C@H](COC(N)=O)[C@]1(OC(C)=O)ON2C[C@H]2[C@@H]1N2C(C)=O
yes (1)

What classification did "CCCCOC(=O)c1ccccc1C(=O)OCc1ccccc1" end up with in this test? no (0)

What classification did "Clc1ccc(C(c2ccc(Cl)cc2)C(Cl)Cl)cc1" end up with in this test? yes (1)

What classification did CC(O)CCO (stereo not drawn) end up with in this test? no (0)
